Target: T1, recombinant human RANKL (soluble, Gly136-Asp317, N-terminal 10 His, expressed in CHO cells) (human, UniProt O14788 136-317)
T1 sequence: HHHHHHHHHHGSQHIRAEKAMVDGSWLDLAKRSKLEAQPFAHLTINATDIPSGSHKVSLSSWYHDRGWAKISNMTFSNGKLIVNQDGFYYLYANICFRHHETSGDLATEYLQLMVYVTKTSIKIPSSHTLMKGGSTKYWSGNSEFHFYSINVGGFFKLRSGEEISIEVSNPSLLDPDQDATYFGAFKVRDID
Assay: cell-based or functional assay
readout.label: IC50 (ng/ml) in RAW264.7 cells

Read the entry G12 (antibody, human IgG2, kappa, V domains shown, 293F cells) VH: QVQLVQSGAELKKPGASVKLSCKASGYTFTTYWLQWVRQAPGQGLEWMGAIYPGPGNTKYTQKFKDRFTITADTSKSTAYMQLNSLKSEDSAVYYCARRGSRRGIAYWGQGTLVTVSA VL: NIVLTQSPASLSVSLGQRATISCRASESVDSYGRSFMHWYQQRPGQAPKLLIYLASNLESGVPARFSGSGSRTDFTLTISSVEAEDEATYYCQQDNEDPYTFGGGTKLEIKG and write its reported IC50 (ng/ml) in RAW264.7 cells.
~1060 ng/mL
